measurement.name: melting point

# annotated cases, reported melting point shown
| mol.smiles | result |
| --- | --- |
| CN(C)NC(=O)Cc1ccc(-c2noc(C(F)(F)F)n2)cc1 | 180 to 182 °C |
| O=C(Cc1ccc(-c2noc(C(F)(F)F)n2)c(F)c1)NN1CCOCC1 | 207 to 209 °C |
| O=C(NN1CCCCC1=O)c1ccc(-c2noc(C(F)(F)F)n2)cc1 | 192 to 216 °C |
| O=C(Cc1ccc(-c2noc(C(F)(F)F)n2)c(F)c1)NN1CCCCC1=O | 161 to 163 °C |

q: # melting point lookup, item `CN(C)NC(=O)Cc1ccc(-c2noc(C(F)(F)F)n2)c(F)c1`
a: 163 to 165 °C

q: # melting point lookup, item `O=C(Cc1ccc(-c2noc(C(F)(F)F)n2)cc1)NN1CCOCC1`
a: 182 to 188 °C

q: # melting point lookup, item `O=C(NNCCO)c1ccc(-c2noc(C(F)(F)F)n2)cc1`
a: 140 to 149 °C

q: # melting point lookup, item `O=C(Cc1ccc(-c2noc(C(F)(F)F)n2)cc1)NN1CCCCC1=O`
a: 165 to 170 °C

q: # melting point lookup, item `O=C(NN1CCOCC1)c1ccc(-c2noc(C(F)(F)F)n2)cc1F`
a: 140 to 160 °C
